- Study Target: rat lens aldose reductase (RLAR) (Rattus norvegicus, UniProt P07943)
- Construct: from tissue; host or cells: lens of Sprague-Dawley rats (supernatant of homogenate)
- Assay Method Text: Enzyme kinetics of RLAR inhibition (Lineweaver-Burk and Dixon plots)
- Type: biochemical
- Experimental Context: Dixon plots; single inhibition constant; read-out: RLAR Ki
Measured Metric: Ki (µM)
Report only the number, with the unit µM understood.

# input Looking for the measured Ki of CC(C)=CCC[C@](C)(O)[C@H]1CC[C@]2(C)[C@@H]1[C@H](O)C[C@@H]1[C@@]3(C)CC[C@H](O)C(C)(C)[C@@H]3[C@@H](O)C[C@]12C [Protopanaxatriol] , can you help?
# output 28.9

* * *

- Study Target: human recombinant aldose reductase (HRAR) (Homo sapiens, UniProt P15121)
- Construct: purchased Wako Chemicals (Osaka, Japan)
- Assay Method Text: Enzyme kinetics of HRAR inhibition (Lineweaver-Burk and Dixon plots)
- Type: biochemical
- Experimental Context: read-out: HRAR Kic (binding constant of inhibitor with free enzyme); Dixon plots
Measured Metric: Ki (µM)
Report only the number, with the unit µM understood.

# input Looking for the measured Ki of CC(C)=CCCC(C)(O)C1CCC2(C)C1C(O)CC1C3(C)CCC(OC4OC(CO)C(O)C(O)C4OC4OC(CO)C(O)C(O)C4O)C(C)(C)C3CCC12C [(20R) ginsenoside Rg3] , can you help?
# output 11.1

* * *

- Study Target: human recombinant aldose reductase (HRAR) (Homo sapiens, UniProt P15121)
- Construct: purchased Wako Chemicals (Osaka, Japan)
- Assay Method Text: HRAR inhibition assay (DL-glyceraldehyde substrate)
- Type: biochemical
One threshold, 5 µM, splits the recorded IC50 values: lower ones are t, equal or higher ones are f.

# input Please check: IC50 for CC(C)=CC/C=C(\C)[C@H]1CC[C@]2(C)[C@@H]1[C@H](O)C[C@@H]1[C@@]3(C)CC[C@H](O[C@@H]4O[C@H](CO)[C@@H](O)[C@H](O)[C@H]4O[C@@H]4O[C@H](CO)[C@@H](O)[C@H](O)[C@H]4O)C(C)(C)[C@@H]3CC[C@]12C [Ginsenoside Rg5] , strictly under 5 µM or not?
# output f

# input Please check: IC50 for CC(C)=CCC[C@](C)(O)C1CC[C@]2(C)[C@@H]1[C@H](O)CC1[C@@]3(C)CC[C@H](O[C@@H]4O[C@H](CO)[C@@H](O)[C@H](O)[C@H]4O[C@@H]4O[C@H](CO)[C@@H](O)[C@H](O)[C@H]4O)C(C)(C)C3CC[C@]12C (stereo partly drawn) [(20S) ginsenoside Rg3] , strictly under 5 µM or not?
# output f

# input Please check: IC50 for O=C(O)Cn1c(=O)n(Cc2ccc(Br)cc2F)c(=O)c2ccc(Cl)cc21 [Zenaresta, Zenarestat, reference compound] , strictly under 5 µM or not?
# output t

# input Please check: IC50 for CC(C)=CCC[C@](C)(O)[C@H]1CC[C@]2(C)[C@@H]1[C@H](O)C[C@@H]1[C@@]3(C)CC[C@H](O[C@@H]4O[C@H](CO)[C@@H](O)[C@H](O)[C@H]4O)C(C)(C)[C@@H]3CC[C@]12C [Ginsenoside Rh2] , strictly under 5 µM or not?
# output f

# input Please check: IC50 for CC(C)=CCC[C@](C)(O)[C@H]1CC[C@]2(C)[C@@H]1[C@H](O)C[C@@H]1[C@@]3(C)CC[C@H](O)C(C)(C)[C@@H]3[C@@H](O[C@@H]3O[C@H](CO)[C@@H](O)[C@H](O)[C@H]3O)C[C@]12C [Ginsenoside Rh1] , strictly under 5 µM or not?
# output t

* * *

- Study Target: rat lens aldose reductase (RLAR) (Rattus norvegicus)
- Construct: from tissue; host or cells: lens of Sprague-Dawley rats (supernatant of homogenate)
- Assay Method Text: RLAR inhibitory activity assay (rat lens homogenate, DL-glyceraldehyde substrate)
- Format: biochemical
- Experimental Context: rat lens homogenate; substrate DL-glyceraldehyde; mean ± S.E.M. of triplicate experiments; read-out: RLAR IC50
- Experimental: A rat lens homogenate was prepared with minor modifications according to the method reported by Hayman et al.. Briefly, the lenses were removed from the eyes of Sprague-Dawley rats weighing 250–280 g. […] AR activity was determined by measuring the decrease in NADPH absorption at 340 nm over a 4 min period on an Ultrospec®2100pro UV/Visible spectrophotometer. […]
Please provide measured IC50 for the entries that follow.
Report only the number, with the unit µM understood.

# input # value lookup — system rat lens aldose reductase (RLAR) (Rattus norvegicus), readout IC50, item CC(C)=CCC[C@](C)(O[C@@H]1O[C@H](CO[C@@H]2O[C@@H](CO)[C@H](O)[C@H]2O[C@@H]2OC[C@@H](O)[C@H](O)[C@H]2O)[C@@H](O)[C@H](O)[C@H]1O)[C@H]1CC[C@]2(C)[C@@H]1[C@H](O)C[C@@H]1[C@@]3(C)CC[C@H](O[C@@H]4O[C@H](CO)[C@@H](O)[C@H](O)[C@H]4O[C@@H]4O[C@H](CO)[C@@H](O)[C@H](O)[C@H]4O)C(C)(C)[C@@H]3CC[C@]12C [Ginsenoside Ra2]
# output 178

# input # value lookup — system rat lens aldose reductase (RLAR) (Rattus norvegicus), readout IC50, item CC(C)=CCC[C@](C)(O)[C@H]1CC[C@]2(C)[C@@H]1[C@H](O)C[C@@H]1[C@@]3(C)CC[C@H](O)C(C)(C)[C@@H]3[C@@H](O)C[C@]12C
# output 27.9

# input # value lookup — system rat lens aldose reductase (RLAR) (Rattus norvegicus), readout IC50, item CC(C)=CCCC(C)(O)C1CCC2(C)C1C(O)CC1C3(C)CCC(O)C(C)(C)C3C(OC3OC(CO)C(O)C(O)C3OC3OC(C)C(O)C(O)C3O)CC12C [(20R) ginsenoside Rg2]
# output 29.4

# input # value lookup — system rat lens aldose reductase (RLAR) (Rattus norvegicus), readout IC50, item CC(C)=CCC[C@](C)(O[C@@H]1O[C@H](CO)[C@@H](O)[C@H](O)[C@H]1O)[C@H]1CC[C@]2(C)[C@@H]1[C@H](O)C[C@@H]1[C@@]3(C)CC[C@H](O[C@@H]4O[C@H](CO)[C@@H](O)[C@H](O)[C@H]4O[C@@H]4O[C@H](CO)[C@@H](O)[C@H](O)[C@H]4O)C(C)(C)[C@@H]3CC[C@]12C [Ginsenoside Rd]
# output 89.6

* * *

- Study Target: rat lens aldose reductase (RLAR) (Rattus norvegicus)
- Construct: from tissue; host or cells: lens of Sprague-Dawley rats (supernatant of homogenate)
- Assay Method Text: RLAR inhibitory activity assay (rat lens homogenate, DL-glyceraldehyde substrate)
- Type: biochemical
- Experimental Context: rat lens homogenate; substrate DL-glyceraldehyde; mean ± S.E.M. of triplicate experiments; read-out: RLAR IC50
Measured Metric: pIC50
Recall that pIC50 is obtained by taking minus log10 of the concentration measured in molar.

# input Looking for the measured pIC50 of CC(C)=CCC[C@](C)(O[C@@H]1O[C@H](CO)[C@@H](O)[C@H](O)[C@H]1O)[C@H]1CC[C@]2(C)[C@@H]1[C@H](O)C[C@@H]1[C@@]3(C)CC[C@H](O)C(C)(C)[C@@H]3[C@@H](O[C@@H]3O[C@H](CO)[C@@H](O)[C@H](O)[C@H]3O)C[C@]12C [Ginsenoside Rg1] , can you help?
# output 4.31

* * *

- Study Target: rat lens aldose reductase (RLAR) (Rattus norvegicus, UniProt P07943)
- Construct: from tissue; host or cells: lens of Sprague-Dawley rats (supernatant of homogenate)
- Assay Method Text: RLAR inhibitory activity assay (rat lens homogenate, DL-glyceraldehyde substrate)
- Type: biochemical
Please provide measured pIC50 for the entries that follow.
Recall that pIC50 is obtained by taking minus log10 of the concentration measured in molar.

# input Looking for the measured pIC50 of CC(C)=CCC[C@](C)(O)[C@H]1CC[C@]2(C)[C@@H]1[C@H](O)C[C@@H]1[C@@]3(C)CC[C@H](O[C@@H]4O[C@H](CO)[C@@H](O)[C@H](O)[C@H]4O)C(C)(C)[C@@H]3CC[C@]12C [Ginsenoside Rh2] , can you help?
# output 6.17

# input Looking for the measured pIC50 of CC(C)=CCC[C@](C)(O)[C@H]1CC[C@]2(C)[C@@H]1[C@H](O)C[C@@H]1[C@@]3(C)CC[C@H](O)C(C)(C)[C@@H]3[C@@H](O[C@@H]3O[C@H](CO)[C@@H](O)[C@H](O)[C@H]3O)C[C@]12C [Ginsenoside Rh1] , can you help?
# output 5.14

# input Looking for the measured pIC50 of CC(C)=CC/C=C(\C)[C@H]1CC[C@]2(C)[C@@H]1[C@H](O)C[C@@H]1[C@@]3(C)CC[C@H](O[C@@H]4O[C@H](CO)[C@@H](O)[C@H](O)[C@H]4O[C@@H]4O[C@H](CO)[C@@H](O)[C@H](O)[C@H]4O)C(C)(C)[C@@H]3CC[C@]12C [Ginsenoside Rg5] , can you help?
# output 4.26

# input Looking for the measured pIC50 of CC(C)=CCC[C@](C)(O)C1CC[C@]2(C)[C@@H]1[C@H](O)CC1[C@@]3(C)CC[C@H](O[C@@H]4O[C@H](CO)[C@@H](O)[C@H](O)[C@H]4O[C@@H]4O[C@H](CO)[C@@H](O)[C@H](O)[C@H]4O)C(C)(C)C3CC[C@]12C (stereo partly drawn) [(20S) ginsenoside Rg3] , can you help?
# output 5.90
